System: Trichophyton mentagrophytes
Test: Antifungal activity against Trichophyton mentagrophytes by broth microdilution method
Assay type: functional, organism-based
Conditions: read-out: IC50
REPORTED_PROPERTY: IC50 (µM)

Worked cases, answers included:
COc1ccc(C(CN(Cc2ccccc2)C(=O)OC(C)(C)C)OS(=O)(=O)c2cccc(Cl)c2Cl)cc1 (stereo not given); 14.9
CC(C)(C)OC(=O)N(Cc1ccccc1)CC(OS(=O)(=O)c1ccc([N+](=O)[O-])cc1)c1ccccc1 (stereo not given); 5.73
COc1ccc(C(CN(Cc2ccccc2)C(=O)OC(C)(C)C)OS(=O)(=O)c2ccc(F)cc2)cc1 (stereo not given); 22.8
CC(C)(C)OC(=O)N(Cc1ccccc1)CC(OS(=O)(=O)c1ccc2ccccc2c1)c1ccccc1 (stereo not given); 2.12
O=S(=O)(OC(CNCc1ccccc1)c1ccccc1)c1c(Cl)cccc1Cl (stereo not given); 44.7

I. Cc1ccc(S(=O)(=O)OC(CN(Cc2ccccc2)C(=O)OC(C)(C)C)c2ccccc2)cc1 (stereo not given)
II. CC(C)(C)OC(=O)N(Cc1ccccc1)CC(OS(=O)(=O)c1cccc2ccccc12)c1ccccc1 (stereo not given)
Prompt: Compare I and II by numeric IC50 and name the larger one. Identify your selection by its label.
Completion: I
(I: 11.7 µM, II: 5.48 µM)

a. CC(C)(C)OC(=O)N(Cc1ccccc1)CC(OS(=O)(=O)c1ccc(F)cc1)c1ccccc1 (stereo not given)
b. CC(C)(C)OC(=O)N(Cc1ccccc1)CC(OS(=O)(=O)c1ccc(C#N)cc1)c1ccccc1 (stereo not given)
c. CC(C)(C)OC(=O)N(Cc1ccccc1)CC(OS(=O)(=O)c1ccccc1C(F)(F)F)c1ccccc1 (stereo not given)
Prompt: Order field: IC50 | Direction: descending (largest first) Write the labels out in the order the request specifies.
Completion: c, b, a
(c: 24.4 µM, b: 9.48 µM, a: 0.46 µM)

a. COc1ccc(CN(CC(OS(=O)(=O)c2cccc([N+](=O)[O-])c2)c2ccccc2)C(=O)OC(C)(C)C)cc1 (stereo not given)
b. Cc1ccc(C(CN(Cc2ccccc2)C(=O)OC(C)(C)C)OS(=O)(=O)c2c(Cl)cccc2Cl)cc1 (stereo not given)
c. Cc1cc(C)cc(S(=O)(=O)OC(CN(Cc2ccccc2)C(=O)OC(C)(C)C)c2ccccc2)c1 (stereo not given)
Prompt: Order field: IC50 | Direction: descending (largest first) Write the labels out in the order the request specifies.
Completion: c, b, a
(c: 12.6 µM, b: 4.39 µM, a: 2.24 µM)
